Source: patent US20110311550A1

experimental_target: T1, HCV E1E2 antigen, isolate JFH (hepatitis C virus, isolate JFH, UniProt Q99IB8 192-383; Q99IB8 384-750)
T1 construct: also called JFH-1
T1 sequence (Q99IB8 192-383 limits assumed, chain 1 of 2): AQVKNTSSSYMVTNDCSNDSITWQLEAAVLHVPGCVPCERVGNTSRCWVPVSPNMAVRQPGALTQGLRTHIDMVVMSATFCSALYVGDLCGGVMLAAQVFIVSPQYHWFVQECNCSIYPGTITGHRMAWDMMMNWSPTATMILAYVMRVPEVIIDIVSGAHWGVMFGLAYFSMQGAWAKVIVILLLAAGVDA
T1 sequence (Q99IB8 384-750 limits assumed, chain 2 of 2): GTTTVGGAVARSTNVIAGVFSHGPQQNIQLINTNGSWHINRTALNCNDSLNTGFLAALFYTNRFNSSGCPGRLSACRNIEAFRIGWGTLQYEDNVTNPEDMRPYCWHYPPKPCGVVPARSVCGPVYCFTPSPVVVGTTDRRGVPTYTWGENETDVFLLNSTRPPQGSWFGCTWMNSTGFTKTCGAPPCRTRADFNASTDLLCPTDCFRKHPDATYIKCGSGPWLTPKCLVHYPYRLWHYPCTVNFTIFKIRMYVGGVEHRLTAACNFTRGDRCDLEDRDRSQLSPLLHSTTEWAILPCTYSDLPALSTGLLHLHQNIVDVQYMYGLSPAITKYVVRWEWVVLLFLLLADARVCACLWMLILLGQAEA
test: ELISA, Fab on E1E2 antigen
Can you tell me OD 450 nm for the items I'm about to list?
Answers are plain numbers, in OD 450 nm.

// worked examples, OD 450 nm included
[
  {
    "binder": "Fab P6 (Fab, V domains shown) VH: EVQLLESGGGVVQPGKSLTVSCAASGFTFSTFTMHWVRQAPGKWLEWVAVISHDGGTEHYADSVTGRFTISRDNSKNTLHMQMNSLRLEDTAVYFCARGGPAYYLYNDVLTGYYNVVGDFWGQGTLVTVSS VL: ELIQSPGTLFLSSGERATLSCRASQSVSSSNLAWFQHKSGRAPRLLIYGASNRAPDIPDRFSGSGSGTDFTISISRLEPEDFAVYYCQRYGDSPPITFGQGTRLEIKR",
    "unit_abbreviation": "OD 450 nm",
    "reported_value": 0
  },
  {
    "binder": "Fab O1 (Fab, V domains shown) VH: VQLLEQSGAEVKKAGESVRLSCKASGYRFGDYWIAWVRQLPGRAPEWMGIIYPDDSDTKYSPSFQGQVTISADKSIRTTFLDWGSLKASDTAIYYCARGCLGAKCYYPHYYYGLDVWGQGTTVIVSS VL: ELTQSPSSLSASVGDRVTITCRATQGIDNYLNWYQQKPGKPPRLLIYGASSLQSGVPSRFSGGGSGTHFTLTITNLQPEDFATYYCQQSYSTPPETFGQGTKVEIKR",
    "unit_abbreviation": "OD 450 nm",
    "reported_value": 0
  },
  {
    "binder": "Fab N1 (Fab, V domains shown) VH: VQLLEQSGPEVKKPGDSLRISCKMSGDSLVTTWIGWVRQKPGQGLEWMGIINPGDSSTNIYPGDSATRYGPSFQGQVTISIDKSTSTAYLQWNAVKPSDTGIYYCARHVPVPISGTFLWREREMHDFGYFDDWGQGTLVIVSS VL: ELTQSPGTLSLSPGERATLSCRASQSVSSSYLAWYQQKPGQAPRLLIYGASNRAAGIPDRFSGSGSGADFTLTISRLEPEDFAVYYCQQYGSSLITFGQGTRLEIKR",
    "unit_abbreviation": "OD 450 nm",
    "reported_value": 0.99
  },
  {
    "binder": "Fab P1a (Fab, V domains shown) VH: EVQLLESGGGVVQPGGSLRLSCAASGFTFTSFTMHWVRQAPGKGLEWVALISHDGSNKDYADSVRGRFTVSRDNSKKMVYLQMSSLRPDDAAVYYCARGGPAYYTYSDTLTGYHNVVGDYWGQGTLVTVSS VL: ELTQSPGTLSLSPGERATLSCRTSQSVSSTYLAWYQQKPGQPPRLLIYGASNRAPGIPDRFSGSGSGTDFTLTISRLEPEDFAVYYCQQYGDSPPITFGQGTRLDIKR",
    "unit_abbreviation": "OD 450 nm",
    "reported_value": 0
  }
]

Tell me the measured OD 450 nm of Fab U1 (Fab, V domains shown) VH: VQLLEQSGPEVKRPGTSVKMSCKISGGASITQAMSWVRQAPGQGLEWMGGITPIFGTVNYAQKILGRVTITADEDTVSLELSSLKSEDTAVYYCAREVNLKTWNLAHPNVFDVWGQGTMLTVSS VL: ELTQSPSSLSASVGDRVTITCRASQSISSFLNWYQQKPGKAPKLLIYAASSLQSGVPPRFSGSGSGTDFTLTISSLQPEDFATYYCQQSYSTPRTFGQGTKLEIKR , please.
0.07
